Tested on: tet operator sequence
Assay: β-galactosidase activity of a tetracycline-regulated promoter in transformed E. coli with revTetR, in the presence and absence of anhydrotetracycline (atc)
Format: cell-based, Escherichia coli
Settings: RevTetR isolate cultured in the absence of anhydrotetracycline (ATC)
Lab note - cut at 80 for β-Galactosidase Activity, Cultured Without ATC: 1.0 if strictly below, 0.0 if not.

State whether 80 exceeds β-Galactosidase Activity, Cultured Without ATC recorded for TetRrev6-31: revTetR(BD) G96Q G102S (protein, Modified tetracycline repressor, revTetR(BD) G96Q G102S) MSRLDKSKVINSALELLNEVGIEGLTTRKLAQKLGVEQPTLYWHVKNKRALLDALAVEILARHHDYSLPAAGESWQSFLRNNAMSFRRALLRYRDQAKVHLSTRPDEKQYDTVETQLRFMTENGFSLRDGLYAISAVSHFTLGAVLEQQEHTAALTDRPAAPDENLPPLLREALQIMDSDDGEQAFLHGLESLIRGFEVQLTALLQIV .
1.0

State whether 80 exceeds β-Galactosidase Activity, Cultured Without ATC recorded for TetRrevAD3/2: revTetR(BD) A56P E58H A61A H63Y (protein, Modified tetracycline repressor, revTetR(BD) A56P E58H A61A H63Y) MSRLDKSKVINSALELLNEVGIEGLTTRKLAQKLGVEQPTLYWHVKNKRALLDALPVHILARYHDYSLPAAGESWQSFLRNNAMSFRRALLRYRDGAKVHLGTRPDEKQYDTVETQLRFMTENGFSLRDGLYAISAVSHFTLGAVLEQQEHTAALTDRPAAPDENLPPLLREALQIMDSDDGEQAFLHGLESLIRGFEVQLTALLQIV .
1.0

State whether 80 exceeds β-Galactosidase Activity, Cultured Without ATC recorded for TetRrev6-2: revTetR(BD) D95G G96R H100L (protein, Modified tetracycline repressor, revTetR(BD) D95G G96R H100L) MSRLDKSKVINSALELLNEVGIEGLTTRKLAQKLGVEQPTLYWHVKNKRALLDALAVEILARHHDYSLPAAGESWQSFLRNNAMSFRRALLRYRGRAKVLLGTRPDEKQYDTVETQLRFMTENGFSLRDGLYAISAVSHFTLGAVLEQQEHTAALTDRPAAPDENLPPLLREALQIMDSDDGEQAFLHGLESLIRGFEVQLTALLQIV .
0.0

State whether 80 exceeds β-Galactosidase Activity, Cultured Without ATC recorded for TetRrev28/26: revTetR(BD) L14T N18Y G21G I22F (protein, Modified tetracycline repressor, revTetR(BD) L14T N18Y G21G I22F) MSRLDKSKVINSATELLYEVGFEGLTTRKLAQKLGVEQPTLYWHVKNKRALLDALAVEILARHHDYSLPAAGESWQSFLRNNAMSFRRALLRYRDGAKVHLGTRPDEKQYDTVETQLRFMTENGFSLRDGLYAISAVSHFTLGAVLEQQEHTAALTDRPAAPDENLPPLLREALQIMDSDDGEQAFLHGLESLIRGFEVQLTALLQIV .
0.0
